Test system: LOC_OS05G28520-cb001
Test: thermal shift delta Tm vs DMSO control; higher = stronger stabilization (binding);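 note: purified Escherichia coli-expressed rice kinase domain construct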
Settings: 12.5 µM; protein concentration 2 µM
Record True whenever thermal shift delta Tm is at 0.7 °C or higher; record False when lower.

See these solved cases before continuing.
>>> discrete_label("Cc1csc(-c2nnc(Nc3ccc(Oc4ncccc4-c4ccnc(N)n4)cc3)c3ccccc23)c1")
"False"
>>> discrete_label("Cc1cc(Nc2ncnc3ccc(-c4ccc(CNCCS(C)(=O)=O)o4)cc23)ccc1Oc1ccn2ncnc2c1")
"True"
>>> discrete_label("CCN(CC)CCCC(C)Nc1nc(C)cc(Nc2ccc3nc(C)cc(N)c3c2)n1 (stereo not drawn)")
"False"
>>> discrete_label("C=CC(=O)N1CC[C@@H](Oc2nc(Nc3ccc(N4CCC(N5CCN(C)CC5)CC4)cc3)c(C(N)=O)nc2CC)C1")
"True"
>>> discrete_label("CCN1/C(=C/C(C)=O)Sc2ccc(OC)cc21")
"False"
>>> discrete_label("C=CC(=O)Nc1ccc(CN2C(=O)N(c3cc(OC)cc(OC)c3)Cc3cnc(Nc4ccc(N5CCN(C)CC5)cc4)nc32)cc1")
"True"

Please find the next compound below.
query: Reported thermal shift delta Tm at or above 0.7 °C? `Cn1cc(-c2ccc3nnc(Sc4ccc5ncccc5c4)n3n2)cn1`
result: False

====

Property: thermal shift delta Tm; scope: individual molecules
Test system: LOC_OS02G45750-cb003
Assay: thermal shift delta Tm vs DMSO control; higher = stronger stabilization (binding)
Settings: 12.5 µM; protein concentration 2 µM

>>> obs_value("O=C1c2c(O)cc(O)cc2OC(c2ccc(O)c(O)c2)C1O (stereo not given) [Taxifolin (Dihydroquercetin)]")
"0.74 °C"

query: Please report the recorded thermal shift delta Tm for `O=c1c(O)c(-c2cc(O)c(O)c(O)c2)oc2cc(O)cc(O)c12` .
result: 0.6 °C

query: Another: `Nc1[nH]nc2nnc(-c3c(-c4ccccc4)nn4ccccc34)cc12`
result: 1.41 °C

query: # repeat for `c1cn2cc(-c3ccc4cn[nH]c4c3)nc(Nc3ccc(N4CCOCC4)cc3)c2n1`
result: 0.66 °C

query: Would you kindly repeat that for `CN(C)CCOc1ccc(-c2nc(-c3ccncc3)c(-c3ccc4c(c3)CC/C4=N\O)[nH]2)cc1` ?
result: 0.22 °C

query: Another molecule: `O=C(Nc1nc2cccc(-c3ccc(CN4CCS(=O)(=O)CC4)cc3)n2n1)C1CC1`
result: 1.04 °C

query: Try `CN1CCN(Cc2ccc(-c3cnc4[nH]cc(-c5ccc6[nH]ccc6c5)c4c3)cc2)CC1` next.
result: 17.2 °C

query: What do you get for `COc1cc(Nc2ncc(F)c(Nc3ccc4c(n3)NC(=O)C(C)(C)O4)n2)cc(OC)c1OC` ?
result: 6.19 °C

query: What do we get for `O=c1nc(N2CCOCC2)oc2c(-c3cccc4c3sc3ccccc34)cccc12` ?
result: 0.04 °C

query: // query: `O=S(=O)(NCCNC/C=C/c1ccc(Br)cc1)c1cccc2cnccc12`
result: 0.56 °C

query: What do you get for `COc1ccc([C@@H]2OC[C@H]3[C@@H]2CO[C@@H]3c2ccc(O[C@@H]3O[C@H](CO)[C@@H](O)[C@H](O)[C@H]3O)c(OC)c2)cc1OC` ?
result: 0.82 °C

query: Now try `COC(=O)c1ccc2c(c1)NC(=O)/C2=C(\Nc1ccc(N(C)C(=O)CN2CCN(C)CC2)cc1)c1ccccc1` .
result: 2.59 °C

query: Moving on to the next molecule: `CC1(C)OC(=O)C=C[C@]2(C)[C@H]3CC[C@@]4(C)[C@H](c5ccoc5)OC(=O)[C@H]5O[C@]54[C@]3(C)C(=O)C[C@@H]12`
result: 0.46 °C

query: And for CCn1c(N)c(C(=O)NC)c(=O)c2ccc(C#CC(C)(O)COC)nc21 (stereo not given) ?
result: 1.5 °C

query: Field entry: `C[C@@H](N)[C@H]1CC[C@H](C(=O)Nc2ccncc2)CC1`
result: 0.42 °C

query: Next molecule: `CC(C)(C)c1cc(NC(=O)Nc2ccc(-c3cn4c(n3)sc3cc(OCCN5CCOCC5)ccc34)cc2)no1`
result: -0.83 °C

query: Next record, please: C=CC(=O)N1CCC(Oc2cc3c(Nc4ccc(Cl)c(Cl)c4F)ncnc3cc2OC)CC1 [Poziotinib (HM781-36B)]
result: 2.04 °C

query: Follow-up item: `CNC(=O)c1cccc(-c2ccc3c(N4CCOC[C@@H]4C)nc(N4CCOC[C@@H]4C)nc3n2)c1`
result: 0.21 °C

query: Now give it for COc1cc(Nc2ncc(F)c(Nc3ccc4c(n3)N(COP(=O)(O)O)C(=O)C(C)(C)O4)n2)cc(OC)c1OC [Fostamatinib (R788)] too.
result: 4.51 °C

query: Queued: `CN1CCN(S(=O)(=O)c2ccc(-c3cnc(N)c(C(=O)Nc4cccnc4)n3)cc2)CC1`
result: 3.58 °C

query: Can you check `CCOc1ccn(-c2ccc(F)cc2)c(=O)c1C(=O)Nc1ccc(Oc2ccnc(N)c2Cl)c(F)c1` next?
result: 1.27 °C

query: What do you have for `Cn1c(=O)c(F)c(Nc2ccc(I)cc2F)c2c(=O)n(C[C@@H](O)CO)cnc21` ?
result: 1.03 °C
